System: MS2 coat protein
Assay method text: apparent KD of MS2 coat protein; designed switch direction (-1 OFF switch, 1 ON switch): 1; higher = weaker reporter binding
Setup conditions: input ligand: none
Result type: apparent KD of MS2 coat protein (nM)
Hi! Could you send only the number? It should be in nM, unit omitted.

# apparent KD of MS2 coat protein lookup, item UUGAAGAAUUAAGGAUAUCGAGUCGUCAGAUUAAACAUGAGGAUCACCCAUGUGGGUUGCGGUAUCGAGAAGGUAAAUUACAAG [JL JR Sub099 mod 2] (Eterna round: R96, puzzle: Same State NG 2)
39.9

Tell me the measured apparent KD of MS2 coat protein of UUAAUUAAUUAAUUAUACAUGAGGAUCACCCAUGUAAGUGAUCAGGAUAUCAGCUCGUUUAGAGCUGAGAAGGGAUACAUGUAA [SSNG3/13-A3] (Eterna round: R96, puzzle: Same State NG 3) , please.
214

I am curious: what apparent KD of MS2 coat protein value has been reported for AGCUAAAACGAAGGAUAUACAAACAUGAGGAUCACCCAUGUAUACAUGGUUUGUUGUGACCACAUGUAGAAGGUCGUACUAACA [SameState NG2 #18] (Eterna round: R96, puzzle: Same State NG 2) ?
358

Report apparent KD of MS2 coat protein for AACUAACAUGAGGAUCACCCAUGUUGCAGCGGUUGAGGAUAUGUGGGUGAAAAUAGCAUGGCAGAAGGCGAGUGUA [SameState1 Malc#25] (Eterna round: R96, puzzle: Same State 1) please.
208

Please find the next sequence below.
Give its apparent KD of MS2 coat protein value. Item: GCUCGAUGUGCUGUCUACAUGAGGAUCACCCAUGUAGAUGCGGAGGAUAUCUACGUGCUUUAUGUAGAGAAGGUCGUAUCGAGC [SameState NG3 #84] (Eterna round: R96, puzzle: Same State NG 3)
90.4

* * *

Test system: K4 kissing-loop RNA reporter;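 note: bound reporter read as fluorescence of individual clusters on recovered sequencing chips by microscopy, with normalized cluster intensities fitted with a binding model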
Assay method text: apparent KD of K4 kissing-loop reporter; higher = weaker reporter binding
Setup conditions: Eterna round: R107; input ligand: FMN 200 uM
Below, each entry is listed alongside its reported apparent KD of K4 kissing-loop reporter.
State the result as a value with its unit after it.

Please look up its apparent KD of K4 kissing-loop reporter: UAUCUUUGCUGAAGGAGCGAGCAUGUUGGAGUGAUGUUCCGAGCGAGUGAUGUUCGCAUAGCUCAGGUAGGUCGCAGUGGGAGGA [Same State Arginie B GF 16]
129 nM

Entry GGGCGUGGCGCGGCCGCCACUGGGCCUGGGCGCUCGCUGAGUGAUGUUCGUCGGCGGUUGGGUCGUAGGACCGGGUGCUGGUUGG [BDazzled - #8 SS Tryptophan B] has what apparent KD of K4 kissing-loop reporter?
402 nM

Fill in the blank: the reported apparent KD of K4 kissing-loop reporter of GCUAUGGUAGGAAGGAGCGCGGACGAUAUUUAUCGAGUGAUGUUCGAAUAAUUAAAUAAAACGCAGGUAGGUCGCCUACUAUAGC [Arginine B K4 27] is ____.
108 nM

* * *

Catalogue of apparent KD of MS2 coat protein values
Tested on: MS2 coat protein
Assay method text: apparent KD of MS2 coat protein; designed switch direction (-1 OFF switch, 1 ON switch): 1; higher = weaker reporter binding
Setup conditions: input ligand: microRNA oligo, concentration not stated
Entry rule: numbers only, all in nM.

Previously resolved entries follow.
// apparent KD of MS2 coat protein lookup, key: CCGGCAAGUAUAGGAUAUCCCGCUACAGAAGCGGGAGAAGGGUGCCAAACAUGAGGAUCACCCAUGUACACCGGAAAUAUAUAA [Soorve] (Eterna round: R96, puzzle: Same State NG 1)
31.2

# input sequence: GGAUGAUUGACAGGAUAUCAUUUGUAAAUUCGAUGAGAAGGGUCGAUUACUUACACGACGUGUUACAUGAGGAUCACCCAUGUU [SameState NG1 #5] (Eterna round: R96, puzzle: Same State NG 1) ; wanted: its apparent KD of MS2 coat protein
116

Requested read-out: apparent KD of MS2 coat protein. Entry: GCUCGUGGUAUUGUCUACAUGAGGAUCACCCAUGUAGGUGCGGAGGAUAUCUACGUGUCUCAUGUAGAGAAGGUCGUCACGAGC [SameState NG3 #99] (Eterna round: R96, puzzle: Same State NG 3)
174

New cases:
For the sequence CAGCGCUGUCGAGAGGAUAUGCGGUGAUGGACAUGAGGAUCACCCAUGUUAGCGAUAGCAUUACGGUAGAAGGCUCUACAGCUGC [Soteed] (Eterna round: R96, puzzle: Same State 2) , what apparent KD of MS2 coat protein is on record?
32.1

Which apparent KD of MS2 coat protein value belongs to UUGUUUCGUCAUUAACAUGAGGAUCACCCAUGUAUCGUCUCAAAGGAUAUAUAUGCUUGUUUGCUAUAGAAGGUUGAUUGUUGU [JR_SSNG3_Sub093] (Eterna round: R96, puzzle: Same State NG 3) ?
91.6

* * *

Reported apparent KD of MS2 coat protein values for a set of sequences
Test system: MS2 coat protein
Assay method text: apparent KD of MS2 coat protein; designed switch direction (-1 OFF switch, 1 ON switch): -1; higher = weaker reporter binding
Setup conditions: input ligand: microRNA oligo, concentration not stated
Give your result in nM as a bare value.

Need apparent KD of MS2 coat protein, item CACCGUAACAGAGGAUAUGAAACAUGAGGAUCACCCAUGUAAUAAAUGAGAAUUUCGAAUGUACCUCAGAAGGCUGAAACCGGC [Ostricism 82 - Jieux - Exclusion NG 2] (Eterna round: R96, puzzle: Exclusion NG 2)
31.9

Look up apparent KD of MS2 coat protein: CUGUUUUUCGCAGGAUAUGCUCCUCCUUUAUUUGCAGAAGGGCGUUAAACAUGAGGAUCACCCAUGUAUGGUAAUGACUUUUUC [JR_ExcNG1_Sub064] (Eterna round: R96, puzzle: Exclusion NG 1)
16.9

# query: apparent KD of MS2 coat protein of entry CGAAGUACGUAAGGAUAUACCGUGAGGACAACGGUAGAAGGUACAACAACAUGAGGAUCACCCAUGUGGACCUCUCGGCGUUGU [Eternabot solution 19] (Eterna round: R96, puzzle: Exclusion NG 1)
309

Param item = UUAAAUCAUGUAGGAUAUGCUUUGCGAAGCGAGGCAGAAGGACAUGAGGAUCACCCAUGUGCUAGCGUCCGAGAACGGAUGCAA [Mat - Exclusion NG 1 - Mod of JL - D63] (Eterna round: R96, puzzle: Exclusion NG 1) ; retrieve measured apparent KD of MS2 coat protein.
51.8

Please report the recorded apparent KD of MS2 coat protein for UAACAUCUGAUUCUUGAGAUACAUGAGGAUCACCCAUGUUCACAGGAUAUUGAUUUUAAGAAAAGCAAGAAGGGUGAAUCAUUU [JR_ExcNG3_Sub042] (Eterna round: R96, puzzle: Exclusion NG 3) .
19

---
Could you share which apparent KD of MS2 coat protein value was measured for AGGACAUGAGGAUCACCCAUGUAGUGAGGUGUAUCCGAAGACGAGGAUAUACAGAGGAAAUAUCUGUAGAAGGUGUAAUAAAAU [Istediso] (Eterna round: R96, puzzle: Exclusion NG 3) ?
247

Given the entry UCGUCCUGUGUAGGAUAUCGCGGGCUUUGCCCGCGAGAAGGACAUGAGGAUCACCCAUGUGGGCCGCGCCGCGGGCGCGGCCCA [new design] (Eterna round: R96, puzzle: Exclusion NG 1) , report its measured apparent KD of MS2 coat protein.
4700

May I ask what apparent KD of MS2 coat protein has been recorded for CAUUGUUAUCGAGGAUAUCCUAUUGAGAUUCUAGGAGAAGGCGGACUAAACAUGAGGAUCACCCAUGUGGGACGGAUGCUAGGG [Ex NG1 #30] (Eterna round: R96, puzzle: Exclusion NG 1) ?
19.8

# query: apparent KD of MS2 coat protein of entry ACAUGAGGAUCACCCAUGUUUGGCUGGUUUUCUCCGGCUGUCGAGGAUAUAGUCCGGUAUCCGCGCUAGAAGGUGAGGGUUGGC [Aenatbe mod 4] (Eterna round: R96, puzzle: Exclusion NG 3)
14.2

Value lookup for apparent KD of MS2 coat protein; key = AAACAAGCGUGAGGCUCGUCUUAAAAAGCCUCAUGAAAAACAUGAGGAUCACCCAUGUAAAAUGAUCGAAAGAUCAA [JL turnoff v2 29] (Eterna round: R96, puzzle: Sensor v2, turn-off variant 2)
43.4

Find the recorded apparent KD of MS2 coat protein belonging to CUUUUGUGAGGAUAUCAGUAGUAAAAAAAUAAAAUUACUACUGAGAAGGCACAUGAGGAUCACCCAUGUUCCUC [EX4 344: Super Stable 44] (Eterna round: R96, puzzle: Exclusion 4) and report it.
36.3

// apparent KD of MS2 coat protein lookup, key: AGAGUGCUGCGAGGAUAUACAUGAGGAUCACCCAUGUAUUAGUGUGAGGCUUUGCCUCACACAAUGUAGAAGGCGCAGUACUCA [Mat - Exclusion NG 2 - Mod of JL - D8] (Eterna round: R96, puzzle: Exclusion NG 2)
11.1

// query apparent KD of MS2 coat protein value for entry CACCGUUACAGAGGAUAUGGUACAUGAGGAUCACCCAUGUAAUAAAUGAGAAUUUCGGAUGUAUUCCAGAAGGCUGUAAUCGGC [Ostricism 65 - Jieux - Exclusion NG 2] (Eterna round: R96, puzzle: Exclusion NG 2)
34.1

Would you kindly share the measured apparent KD of MS2 coat protein for UAGAAUCGAGGAUAUACAUGAGGAUCACCCAUGUGUGGCCAUUUGGUGUGGUCGUCAGGUAGAAGGCGAUUACA [Exclusion 3 - Mod of Jieux's Gilly Gone Silly 23 v.5] (Eterna round: R96, puzzle: Exclusion 3) ?
211

Bench note: what apparent KD of MS2 coat protein did AUUAUAAAUGUAGGAUAUCUGCACGAUUAGUGCAGAGAAGGACAUGAGGAUCACCCAUGUAGAUCAAUAAUAAUUAAUUUAAUU [ENG1/5-B1] (Eterna round: R96, puzzle: Exclusion NG 1) show?
34

Requested field: apparent KD of MS2 coat protein. Item: UGUUGUCGCGCAGGAUAUGAGGAUCACCCAUGUAGAGGAUAUGAAAAGAAGGCUCUGAGGAUUACCCAGAAGGGCGGGACAACU [pwkr exNG2 2xF5 2xFMN.25] (Eterna round: R96, puzzle: Exclusion NG 2)
270

Consider the sequence GCAGUAACAUGAGGAUCACCCAUGUGGAACUCGUGAAUAAGCGAGGAUAUCUCAAGAUAUCAAAGAGAGAAGGCGUACACUGCA [Qulege] (Eterna round: R96, puzzle: Exclusion NG 3) and give its measured apparent KD of MS2 coat protein.
96.1
